TESTED_ON: hTLR7 (Homo sapiens, UniProt Q9NYK1)
Construct: expressed in transfected cells; host or cells: HEK-Blue hTLR7 reporter cell line
Sequence (Q9NYK1 27-1049): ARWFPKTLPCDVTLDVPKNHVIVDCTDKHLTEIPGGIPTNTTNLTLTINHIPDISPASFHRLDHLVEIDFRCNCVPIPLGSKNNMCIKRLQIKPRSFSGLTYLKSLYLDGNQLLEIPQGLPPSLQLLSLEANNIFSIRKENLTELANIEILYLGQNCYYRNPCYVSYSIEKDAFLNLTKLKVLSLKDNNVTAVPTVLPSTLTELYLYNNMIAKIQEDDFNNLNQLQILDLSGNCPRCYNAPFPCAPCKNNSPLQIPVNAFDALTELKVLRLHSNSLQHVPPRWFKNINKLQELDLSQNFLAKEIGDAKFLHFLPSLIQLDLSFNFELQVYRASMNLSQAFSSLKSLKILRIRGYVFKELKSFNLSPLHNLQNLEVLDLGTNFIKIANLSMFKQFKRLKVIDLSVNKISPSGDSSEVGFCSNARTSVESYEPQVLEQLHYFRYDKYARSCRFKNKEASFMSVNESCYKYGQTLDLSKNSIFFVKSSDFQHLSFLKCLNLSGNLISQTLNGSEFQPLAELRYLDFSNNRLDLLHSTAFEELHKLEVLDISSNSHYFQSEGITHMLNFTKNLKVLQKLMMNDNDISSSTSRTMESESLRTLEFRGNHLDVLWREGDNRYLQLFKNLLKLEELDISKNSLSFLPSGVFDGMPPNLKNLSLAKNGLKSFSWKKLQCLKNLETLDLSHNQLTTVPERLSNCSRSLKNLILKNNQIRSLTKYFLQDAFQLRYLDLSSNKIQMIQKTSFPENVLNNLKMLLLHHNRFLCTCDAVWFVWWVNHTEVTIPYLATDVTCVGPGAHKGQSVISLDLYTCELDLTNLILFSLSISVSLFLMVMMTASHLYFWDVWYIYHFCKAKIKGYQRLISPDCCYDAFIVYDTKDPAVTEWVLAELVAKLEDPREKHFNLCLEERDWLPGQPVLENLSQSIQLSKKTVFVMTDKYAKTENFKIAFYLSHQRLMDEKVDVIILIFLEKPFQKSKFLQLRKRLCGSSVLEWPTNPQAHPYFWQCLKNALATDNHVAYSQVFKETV
ASSAY_OVERVIEW: HEK-Blue hTLR7 reporter assay (NF-kB-induced SEAP, Quanti-Blue)
Type: cell-based
CONDITION_DESCRIPTION: Table 10; read-out: TLR7 EC50
pEC50: −log10 of the molar value.
ASSAY_READOUT: pEC50

MOLECULE: CCCCc1nc2c(N)nc3ccccc3c2n1CCCCNC(=O)c1ccc(N2CCCC2)cc1
pEC50: 6.04

MOLECULE: CCCCc1nc2c(N)nc3ccccc3c2n1CCCCNC(=O)c1cc(F)c(N)c(F)c1
pEC50: 6.62

MOLECULE: CCCCc1nc2c(N)nc3ccccc3c2n1CCCCNC(=O)c1cccc(N)c1
pEC50: 6.48

MOLECULE: CCCCc1nc2c(N)nc3ccccc3c2n1CCCCNC(=O)c1ccc(F)c(N)c1
pEC50: 6.58

MOLECULE: CCc1nc2c(N)nc3ccccc3c2n1CCCCNC(=O)c1ccc(N(C)C)cc1
pEC50: 7.96

A: CCCCc1nc2c(N)nc3cccnc3c2n1CCCCNC(=O)c1cnccn1
B: CCc1nc2c(N)nc3ccccc3c2n1CCCCNC(=O)/C=C/c1ccc(N(C)C)cc1
C: CCCCc1nc2c(N)nc3ccccc3c2n1CCCCNC(=O)c1ccc(N(C)C)cc1
D: CCCCc1nc2c(N)nc3cccnc3c2n1CCCCNC(=O)c1ccc(N(C)C)cc1
Sort these molecules on pEC50 so the largest reading comes first. Sort the labels as requested; that list is your answer.
B, D, C, A

I: CCCCc1nc2c(N)nc3ccccc3c2n1CCCCNC(=O)c1ccc(N)c(OC)c1
II: CCCCc1nc2c(N)nc3ccccc3c2n1CCCCNC(=O)c1ccc(N)c(F)c1
Problem: Given the entries I and II , determine which has the lower reported pEC50. Lab note: record the label of whichever item you select.
I

Each recorded value in this set is attributed to patent US20230302150A1.
